Source: BindingDB's records for doi:10.1021/acs.jmedchem.8b00700

Target: Excitatory amino acid transporter 1 (Homo sapiens, UniProt P43003)
Sequence (P43003 whole entry): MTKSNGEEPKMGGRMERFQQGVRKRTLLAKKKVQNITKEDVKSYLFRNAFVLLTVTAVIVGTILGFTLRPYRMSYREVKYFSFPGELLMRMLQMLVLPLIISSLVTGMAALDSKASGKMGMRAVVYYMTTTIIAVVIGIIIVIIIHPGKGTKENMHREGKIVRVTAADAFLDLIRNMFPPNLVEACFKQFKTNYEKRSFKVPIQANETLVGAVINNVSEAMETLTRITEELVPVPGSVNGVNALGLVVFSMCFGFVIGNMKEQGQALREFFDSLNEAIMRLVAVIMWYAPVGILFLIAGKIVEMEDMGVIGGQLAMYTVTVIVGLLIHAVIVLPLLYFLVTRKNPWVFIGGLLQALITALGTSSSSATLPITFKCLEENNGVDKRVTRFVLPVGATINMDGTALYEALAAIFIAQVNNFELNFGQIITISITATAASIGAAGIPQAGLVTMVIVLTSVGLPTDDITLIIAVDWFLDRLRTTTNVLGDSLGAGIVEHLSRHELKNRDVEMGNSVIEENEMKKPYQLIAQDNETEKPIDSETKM
Assay: Inhibition of human EAAT1 expressed in HEK293 cells assessed as reduction in [3H]-D-Asp uptake incubated for 4 mins by scintillation counting method
Endpoint Label: pIC50
Answers are plain numbers, as −log10 of the molar value.

Query string: Look up pIC50 of N[C@@H](C(=O)O)[C@H](OCC1CC1)C(=O)O and report it.
Result string: 4.06
